Assayed Target: gEgI mutant (P319D): HSV2 gEgI mutant heterodimer comprising gE and gI ectodomains with mutation P319D in gE (HSV2, UniProt P89475 21-416; P06764 21-256)
Protocol Text: ELISA, supernatant

{"Binder": "mAb clone 44 (antibody, V domains shown) VH: EVQLQQSGPELEKPGASVKISCKASGYSFTGYNMNWVKQSNGKSLEWIGNIDPYYGGIRYNQKFKGKATLTVDKSSSTAYMQLKSLTSEDSAVYYCAREDRYLVHYYAMDYWGQGTSVTVSS VL: QIVLTQSPAIMSASPGEKVTMTCSASSSISYMHWYQQKPGTSPKRWIYDTSKLASGVPARFSGSGSGTSYSLTISSMEAEDAATYYCHQRSSYPYTFGGGTKLEIK", "binding result": "binds"}
